# protocolDetails: HIF-2a reporter inhibitors, primary screen, luminescence, 786-0 RCC cells (AID 624352)
# experimentalConditions: 786-0 RCC cells HIF-2a reporter, luciferase luminescence, overnight; at 18.8 µM; hits give high values
Among all 360,000 compounds or so, about 2,600 (0.72%) were called active. The entries come from a sample that favours actives as a whole.
Recorded inhibition by entry

// solved cases for inhibition follow
molecule	inhibition
CN(C)C(=O)c1ccc(NC(=O)c2ccccc2-c2ccccc2)cc1	19.3% (inactive)
CN1C(=O)[C@H]2[C@@H](/C=C/c3ccccc3)N3C(=O)CN(Cc4ccc(-c5ccccc5)cc4)C(=O)[C@@]3(C)[C@H]2C1=O	-8.21% (inactive)
C=C(C)C(=O)O[C@H]1C/C(C)=C\C(=O)/C=C(\C)[C@H](O)[C@@H]2OC(=O)C(=C)[C@@H]21	92.8% (active)
NC(N)=Nc1nc2ccc(Br)cc2c(=O)[nH]1	-20.2% (inactive)
Cc1sc(NC(=S)NC(=O)c2cccs2)nc1-c1ccc(CC(C)C)cc1	-5.06% (inactive)

Sample NC(N)=Nc1nc(-c2ccccc2)c2cc(Cl)ccc2n1 ; inhibition observed: 41.9% (active)

Sample CCCC(=O)N1CCN(c2nnc(-c3ccc(C)cc3)c3ccccc23)CC1 ; inhibition observed: 12.6% (inactive)

Sample Cc1ccc(CNC(=O)COC(=O)C2CCC2)cc1 ; inhibition observed: 2.35% (inactive)

Sample CC(OC(=O)c1ccccc1NCCO)C(=O)Nc1ccnn1C(C)C (stereo not given) ; inhibition observed: 10% (inactive)

Sample COC(=O)c1c(NC(=O)CCN2CCOCC2)sc2c1CCCC2 ; inhibition observed: 5.82% (inactive)

Sample O=C(O)c1ccc(N=NN2CCOCC2)cc1 ; inhibition observed: 10.1% (inactive)

Sample Nc1nc(Br)c2ccccc2c1-c1ccc(F)cc1 ; inhibition observed: 5.57% (inactive)

Sample O=C1C=C(c2ccc(Cl)cc2)C(=O)N1Nc1ccccc1 ; inhibition observed: 64.8% (active)

Sample CC(=O)c1cccc(-c2ccc(CN3C(CC(C)C)C(=O)N(Cc4cn(CC5CCCCC5)nn4)CCS3(=O)=O)cc2)c1 (stereo not given) ; inhibition observed: 4.21% (inactive)

Sample CC(=O)OCc1cc(=O)n(C)c(=O)n1C ; inhibition observed: -10.8% (inactive)

Sample O=C(CNCc1ccco1)Nc1cc(S(=O)(=O)N2CCOCC2)ccc1N1CCCC1 ; inhibition observed: 12.6% (inactive)

Sample Cc1ccc(CC(=O)N(C)CC(=O)N(CC(C)C)c2c(N)n(CC(C)C)c(=O)[nH]c2=O)cc1C ; inhibition observed: 10.3% (inactive)

Sample Clc1ccc2nc(-c3ccccc3)nc(C(Cl)Cl)c2c1 ; inhibition observed: 57.1% (active)

Sample CC1=NC2(CCCc3c2no[n+]3[O-])N(O)C1(C)C (stereo not given) ; inhibition observed: -5.63% (inactive)

====

# protocolDetails: HIF-2a reporter inhibitors, primary screen, luminescence, 786-0 RCC cells (AID 624352)
# experimentalConditions: 786-0 RCC cells HIF-2a reporter, luciferase luminescence, overnight; at 18.8 µM
The campaign covered roughly 360,000 compounds. About 2,600 (0.72%) were called active.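 The calls were made as follows: active = inhibition of the luminescence signal of 40% or more relative to plate controls, in a single-dose primary screen at 18.75 µM; inactive = the rest.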 What follows is part of a selection rich in actives, with near analogues and random picks from the rest.
Your reply should match one of these outcome classes. t = active, f = inactive

molecule	class
CCOc1ccc(CNC(=O)C2CCCN(c3nnc(C)c4c(C)n(-c5ccccc5)nc34)C2)cc1 (configuration not stated)	t

Request: How did this test come out for Cc1ccc(OCC(=O)c2cc(C)n(Cc3ccco3)c2C)c([N+](=O)[O-])n1 ?
Response: t

Request: How did this test come out for O=C(CN1CCN(C2CCS(=O)(=O)C2)CC1)N1N=C(c2ccc(Cl)cc2)CC1c1ccco1 (configuration not stated) ?
Response: t

Request: How did this test come out for COc1ccccc1C(=O)c1ccccc1C(=O)c1ccccc1 ?
Response: f

Request: How did this test come out for CCc1ccc(CNC(=O)C2CC(=O)N(CCc3ccc(C)cc3)C2)cc1 (configuration not stated) ?
Response: f

Request: How did this test come out for CCc1ccc(CNC(=O)C2CCN(c3nnc(C)c4c(C)n(-c5ccc(C)cc5)nc34)CC2)cc1 ?
Response: t

Request: How did this test come out for c1ccc(-c2ccnc3nc(-n4cccc4)nn23)cc1 ?
Response: f

Request: How did this test come out for CCOC(=O)C(=Cc1ccccc1OC)C(=O)OCC ?
Response: t

====

# protocolDetails: HIF-2a reporter inhibitors, primary screen, luminescence, 786-0 RCC cells (AID 624352)
# experimentalConditions: 786-0 RCC cells HIF-2a reporter, luciferase luminescence, overnight; at 18.8 µM; hits give high values
Screen size: about 360,000 compounds; about 2,600 (0.72%) were called active. Only a selection was taken, and actives are over-represented in it overall.
measurementType: inhibition (%)
Dear colleague, please return just the value in %, with no unit written.

// solved cases for inhibition follow
molecule	inhibition (%)
CCOC(=O)CNc1nc(Cl)nc(Nc2ccc(OC)cc2OC)n1	12.9
CCc1ccccc1N(CC(=O)NCCSCc1ccco1)S(C)(=O)=O	11.4
CC1(C)CC2CC(C)(CN2c2ncnc3ccc(Br)cc23)C1 (stereo unspecified)	31.5
Cc1c(C)c2cc3c4c(oc3c(C)c2oc1=O)CCCC4	-31.5
CC(C)[C@H](NC(=O)c1ccccc1F)C(=O)Nc1cccc(S(=O)(=O)N2CCOCC2)c1	6.68

Sample Cc1cc(C)cc(N(CC(=O)NCCSCc2ccco2)S(C)(=O)=O)c1 ; inhibition observed: 15.8

====

Recorded inhibition by entry
# protocolDetails: HIF-2a reporter inhibitors, primary screen, luminescence, 786-0 RCC cells (AID 624352)
# experimentalConditions: 786-0 RCC cells HIF-2a reporter, luciferase luminescence, overnight; at 18.8 µM; hits give high values
The campaign covered roughly 360,000 compounds. About 2,600 (0.72%) were called active. This is one part of a sample in which actives are shown more often than they occur.
Dear colleague, please return just the value in %, with no unit written.

// solved cases for inhibition follow
compound	inhibition [%]
C/C(=N\NS(=O)(=O)c1ccc(Cl)cc1)c1ccc(NC(=O)c2ccco2)cc1	-80.3
Cc1cccc(C(=O)OC(C)C(=O)NC2CCCc3ccccc32)c1O (stereo unspecified)	3.74
CN(c1ccc(OCC(=O)NC2=NCCS2)cc1)S(=O)(=O)c1ccc(F)cc1	1.28

Sample O=C(CNCc1ccc(Cl)cc1)Nc1cccc(C(=O)O)c1 ; inhibition observed: 2.72

Sample CC1CCCN(C(=O)c2ccc3c(c2)C(=O)N(CCC2=CCCCC2)C3=O)C1 (stereo unspecified) ; inhibition observed: 2.05

Sample O=C(c1cn(-c2ccccc2)nc1-c1cccnc1)N1CCN(S(=O)(=O)c2ccccc2F)CC1 ; inhibition observed: 9.12

Sample Cc1[nH]c2ccc(S(N)(=O)=O)cc2c1C ; inhibition observed: 11.6

Sample CCCOc1ccc(C(=O)C(CCC(CNCC)C(=O)c2ccc(OCCC)cc2)CNCC)cc1 (stereo unspecified) ; inhibition observed: 98.1

Sample O=C(CCl)Nc1cccc(CP(=O)(c2ccccc2)c2ccccc2)c1 ; inhibition observed: 44.2

====

Recorded inhibition by entry
# protocolDetails: HIF-2a reporter inhibitors, primary screen, luminescence, 786-0 RCC cells (AID 624352)
# experimentalConditions: 786-0 RCC cells HIF-2a reporter, luciferase luminescence, overnight; at 18.8 µM; hits give high values
Among all 360,000 compounds or so, about 2,600 (0.72%) were called active. The full list was thinned out, with actives kept by preference.
Dear colleague, please return just the value in %, with no unit written.

compound	measurementType	value
COc1ccc(C2/C=C\CN(CC(C)C)CC(=O)N2Cc2ccc(F)cc2)cc1 (configuration not stated)	inhibition	4.31
Cc1coc2c(O)cc3c(c12)OC1(N2CCCCC2)C(=O)NCCCC31 (configuration not stated)	inhibition	56.7

Sample O=S(=O)(NCc1ccccn1)c1ccc(Br)s1 ; inhibition observed: -3.82

Sample CC(C)OCCCNC(=O)CNC(=O)c1cccs1 ; inhibition observed: -6.91

Sample O=S1(=O)CCC(NC(=S)SCc2ccccc2Br)C1 (configuration not stated) ; inhibition observed: 37.1

Sample Fc1ccc2c(c1)C(c1cccnc1)=NNC(c1cccs1)=N2 ; inhibition observed: 0.189

Sample CCCc1[nH]nc2c1C(c1ccc(Br)s1)C(C#N)=C(N)O2 (configuration not stated) ; inhibition observed: 80.8

Sample Cc1ccsc1C(=O)OCC(=O)c1cc(C)n(CC2CCCO2)c1C (configuration not stated) ; inhibition observed: 64.7

Sample OCCCNC(c1ccccc1)c1ccc(O)cc1 (configuration not stated) ; inhibition observed: 1.29

Sample CCN1CCN(CCNC(=O)c2ccc3c(c2)NC(=O)/C(=C\c2cccc(Cl)c2)S3)CC1 ; inhibition observed: 90.6

Sample O=C1Nc2cc(C(=O)N3CCC(N4CCCCC4)CC3)ccc2S/C1=C\c1ccccc1 ; inhibition observed: -25.5

Sample CCOc1cccc(NC(=O)Cn2nc(-c3ccc4c(c3)OCCO4)ccc2=O)c1 ; inhibition observed: 3.02

Sample COc1ccc(-c2cc(C(F)(F)F)nc(S(C)(=O)=O)n2)cc1OC ; inhibition observed: 94.1

Sample O=C(O)C1C2C=CC(O2)C1C(=O)NCCc1cccc(Cl)c1 (configuration not stated) ; inhibition observed: -2.61

Sample CCN1CCCC1CNC(=O)c1ccc2c(c1)NC(=O)/C(=C\c1ccccc1F)S2 (configuration not stated) ; inhibition observed: -13.2

Sample COc1ccc(NC(=O)CCCN2C(=O)C(c3ccccc3)Oc3cccnc32)cc1 (configuration not stated) ; inhibition observed: 0.775

Sample COc1ccnc(Oc2ccccc2)n1 ; inhibition observed: -5.97

Sample COc1ccc(CCNS(=O)(=O)c2ccc(F)cc2)cc1OC ; inhibition observed: 9.4

Sample CC1CC(=O)Nc2ccccc2N1C(=O)COc1ccc2cc(Br)ccc2c1 (configuration not stated) ; inhibition observed: 10.2

Sample COc1cccc(C(NC(C)=O)c2nc(-c3cnc4ccccc4c3)cs2)c1 (configuration not stated) ; inhibition observed: -32.9

Sample Cc1nnc(NC(=O)CSc2nccn2-c2cccc(C)c2C)s1 ; inhibition observed: 7.22

Sample O=C(CS(=O)(=O)Cc1ccccc1)Nc1cccnc1 ; inhibition observed: -1.93
